// data source = patent US20110165161A1

% Annexin V/PI-positive cells, DLD-1, 1.0 µg/ml mAb reference
# ASSAY TARGET: T1, human EpCAM (epithelial cell adhesion/activating molecule) (human, UniProt P16422 24-314)
# T1 sequence: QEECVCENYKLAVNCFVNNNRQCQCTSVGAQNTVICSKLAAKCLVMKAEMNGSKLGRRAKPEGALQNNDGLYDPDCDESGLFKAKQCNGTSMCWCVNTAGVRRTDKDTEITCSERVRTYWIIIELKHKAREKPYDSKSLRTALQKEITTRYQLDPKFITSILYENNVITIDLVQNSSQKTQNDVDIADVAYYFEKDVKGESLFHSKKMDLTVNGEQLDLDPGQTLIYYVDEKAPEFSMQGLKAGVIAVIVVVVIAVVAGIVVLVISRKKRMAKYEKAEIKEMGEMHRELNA
# ASSAY PROCEDURE: cell-based or functional assay
Please format your answer as a value with the unit trailing.

Reference set, count: 3
murine monoclonal antibody 12H8 (antibody, mouse IgG2a, V domains shown, Mouse IgG2a, kappa, from hybridoma; also called m342-12H8.3; m12H8) VH: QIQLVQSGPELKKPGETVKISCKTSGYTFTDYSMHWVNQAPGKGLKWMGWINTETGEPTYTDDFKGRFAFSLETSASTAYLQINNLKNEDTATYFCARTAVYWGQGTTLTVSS VL: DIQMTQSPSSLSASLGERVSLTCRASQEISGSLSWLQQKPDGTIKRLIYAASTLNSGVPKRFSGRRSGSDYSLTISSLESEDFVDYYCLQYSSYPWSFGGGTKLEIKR	61%
murine monoclonal antibody 6D11 (antibody, mouse IgG1, V domains shown, Mouse IgG1, kappa, from hybridoma; also called m338-6D11.8) VH: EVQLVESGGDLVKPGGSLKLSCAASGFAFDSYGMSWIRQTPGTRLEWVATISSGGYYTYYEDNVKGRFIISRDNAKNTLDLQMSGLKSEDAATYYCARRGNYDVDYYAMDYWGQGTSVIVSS VL: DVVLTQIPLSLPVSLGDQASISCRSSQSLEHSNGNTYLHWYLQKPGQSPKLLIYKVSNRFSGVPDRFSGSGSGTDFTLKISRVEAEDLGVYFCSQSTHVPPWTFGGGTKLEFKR	28%
murine monoclonal antibody 4D2 (antibody, mouse IgG1, V domains shown, Mouse IgG1, kappa, from hybridoma; also called m338-4D2.20) VH: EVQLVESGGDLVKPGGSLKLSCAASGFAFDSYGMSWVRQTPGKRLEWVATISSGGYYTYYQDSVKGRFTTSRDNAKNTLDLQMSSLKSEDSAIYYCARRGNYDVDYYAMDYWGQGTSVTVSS VL: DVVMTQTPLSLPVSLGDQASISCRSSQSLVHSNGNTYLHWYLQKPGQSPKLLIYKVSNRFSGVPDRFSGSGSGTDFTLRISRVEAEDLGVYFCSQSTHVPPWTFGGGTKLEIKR	31%

Would you kindly look at the next entry?
Reported % Annexin V/PI-positive cells, DLD-1, 1.0 µg/ml mAb for murine monoclonal antibody 2D11 (antibody, mouse IgG1, V domains shown, Mouse IgG1, kappa, from hybridoma; also called m322-2D11.19) VH: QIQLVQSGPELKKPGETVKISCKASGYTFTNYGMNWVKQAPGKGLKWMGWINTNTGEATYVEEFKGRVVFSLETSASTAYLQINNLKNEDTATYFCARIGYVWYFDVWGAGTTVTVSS VL: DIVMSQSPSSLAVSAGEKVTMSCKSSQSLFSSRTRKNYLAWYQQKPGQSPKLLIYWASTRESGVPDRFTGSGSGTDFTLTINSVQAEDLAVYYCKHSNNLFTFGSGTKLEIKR : what is it?
18%
